method-notes: SRB colorimetric cell growth inhibition assay, H-MEC-1
Type: cell-based
conditions: human; H-MEC-1; LC=cell killing (cytotoxic effect); read-out: LC50 H-MEC-1
measurement-kind: CC50 (µM)

• COc1cc(-c2c3c4cc(OC)c(OC(=O)[C@@H](NC(=O)OC(C)(C)C)C(C)C)cc4oc(=O)c3n3ccc4cc(OC(=O)[C@@H](NC(=O)OC(C)(C)C)C(C)C)c(OC)cc4c23)ccc1OC(=O)[C@@H](NC(=O)OC(C)(C)C)C(C)C [Compound 38] = 9.11

====

System: HT-29
method-notes: SRB colorimetric cell growth inhibition assay, HT-29
Assay type: cell-based
conditions: Homo sapiens, HT-29, HT-29; GI=growth inhibition; read-out: GI50 HT-29
Each record is given class 1 if its reported GI50 is strictly below 2000 nM. Records at or above 2000 nM are given class 0.

* COc1cc2c(cc1OC)-c1c(-c3ccc(OC(=O)CCc4ccccc4)c(OC)c3)c3c4cc(OC)c(OC(=O)CCc5ccccc5)cc4oc(=O)c3n1CC2 | class 0
* C=CCOC(=O)N[C@@H](C)C(=O)Oc1ccc(-c2c3c4cc(OC)c(OC(=O)[C@H](C)NC(=O)OCC=C)cc4oc(=O)c3n3ccc4cc(OC(=O)[C@H](C)NC(=O)OCC=C)c(OC)cc4c23)cc1OC | class 0
* COc1cc(-c2c3c4cc(OC)c(OC(=O)[C@H](C)NC(=O)[C@H](C)N)cc4oc(=O)c3n3ccc4c(OC(=O)[C@H](C)NC(=O)[C@H](C)N)c(OC)c(OC)cc4c23)ccc1OC(=O)[C@H](C)NC(=O)[C@H](C)N | class 1
* COc1cc(-c2c3n(c4c(=O)[nH]c5cc(O)c(OC)cc5c24)CCc2cc(O)c(OC)cc2-3)ccc1O | class 0
* COc1cc(-c2c3n(c4c(=O)oc5cc(OC(=O)[C@H](N)C(C)C)c(OC)cc5c24)CCc2cc(OC(=O)[C@H](N)C(C)C)c(OC)cc2-3)ccc1OC(=O)[C@H](N)C(C)C | class 0

Cited source: patent US7396837B2
